biological target: hM3 mAChR (Homo sapiens, UniProt P20309); construct: expressed in transfected cells; host or cells: CHO-K1 (membrane preparation); experiment: [3H]NMS inhibition radioligand binding, hM3 in CHO-K1 cell membranes; conditions: [3H]NMS, CHO-K1 cell membranes; mean ± S.E.M.
Sequence (P20309 whole entry): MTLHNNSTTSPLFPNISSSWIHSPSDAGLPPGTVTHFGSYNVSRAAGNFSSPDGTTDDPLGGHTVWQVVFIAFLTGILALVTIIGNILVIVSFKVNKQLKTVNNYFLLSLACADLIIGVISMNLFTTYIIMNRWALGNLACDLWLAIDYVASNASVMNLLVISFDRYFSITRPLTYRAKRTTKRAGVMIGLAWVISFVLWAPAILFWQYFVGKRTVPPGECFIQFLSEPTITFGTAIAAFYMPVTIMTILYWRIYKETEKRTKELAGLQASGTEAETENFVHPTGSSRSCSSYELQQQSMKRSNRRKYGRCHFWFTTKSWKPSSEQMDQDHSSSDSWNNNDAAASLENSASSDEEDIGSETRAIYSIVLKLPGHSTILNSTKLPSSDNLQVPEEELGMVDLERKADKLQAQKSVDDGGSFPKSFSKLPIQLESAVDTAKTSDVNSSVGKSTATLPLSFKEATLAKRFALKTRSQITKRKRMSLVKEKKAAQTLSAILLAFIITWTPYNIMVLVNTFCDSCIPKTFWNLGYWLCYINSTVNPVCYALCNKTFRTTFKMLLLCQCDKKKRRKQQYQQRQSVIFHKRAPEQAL
EXPERIMENTAL_READOUT: pKi hM3

Prompt line: Entry C[N+](C)(C)C[C@@H]1CO[C@@H](c2ccc(Sc3ccccc3)cc2)CO1.[I-] (relative stereo) [15b] : reported pKi hM3 = ?
Response line: 5.35

Prompt line: Another molecule to look at: C[N+](C)(C)C[C@@H]1CO[C@@H](C(c2ccccc2)c2ccccc2)CO1.[I-] (relative stereo) [12b]
Response line: 5.62

Prompt line: Here is the next molecule: C[N+](C)(C)C[C@@H]1COC[C@@H](c2ccc(S(=O)(=O)c3ccccc3)cc2)O1.[I-] (relative stereo) [8b]
Response line: 5.63

Prompt line: Next record, please: C[N+](C)(C)C[C@@H]1CO[C@@H](c2ccccc2)[C@@H](c2ccccc2)O1.[I-] (relative stereo) [18c]
Response line: 6.45

Prompt line: Moving on to the next molecule: C[N+](C)(C)C[C@@H]1CO[C@H](c2ccc(S(=O)(=O)c3ccccc3)cc2)CO1.[I-] (relative stereo) [17a]
Response line: 5.14

Prompt line: Next up: C[N+](C)(C)C[C@@H]1CO[C@@](c2ccccc2)(C2CCCCC2)CO1.[I-] (relative stereo) [11a]
Response line: 7.43

Prompt line: Now this one: CN(C)C[C@@H]1COC[C@](c2ccccc2)(C2CCCCC2)O1 [(2R,6R)-(+)-33b]
Response line: 6.73

Prompt line: One more molecule: C[N+](C)(C)C[C@@H]1CO[C@H](c2ccccc2)CO1.[I-] (relative stereo) [9a]
Response line: 5.14

Prompt line: Please answer likewise for C[N+](C)(C)C[C@@H]1CO[C@H](c2ccccc2)[C@@H](c2ccccc2)O1.[I-] (relative stereo) [18b]
Response line: 5.81
